Target: Cytochrome P450 1A2 (Homo sapiens) (UniProt P05177)
Sequence (P05177 whole entry, looked up): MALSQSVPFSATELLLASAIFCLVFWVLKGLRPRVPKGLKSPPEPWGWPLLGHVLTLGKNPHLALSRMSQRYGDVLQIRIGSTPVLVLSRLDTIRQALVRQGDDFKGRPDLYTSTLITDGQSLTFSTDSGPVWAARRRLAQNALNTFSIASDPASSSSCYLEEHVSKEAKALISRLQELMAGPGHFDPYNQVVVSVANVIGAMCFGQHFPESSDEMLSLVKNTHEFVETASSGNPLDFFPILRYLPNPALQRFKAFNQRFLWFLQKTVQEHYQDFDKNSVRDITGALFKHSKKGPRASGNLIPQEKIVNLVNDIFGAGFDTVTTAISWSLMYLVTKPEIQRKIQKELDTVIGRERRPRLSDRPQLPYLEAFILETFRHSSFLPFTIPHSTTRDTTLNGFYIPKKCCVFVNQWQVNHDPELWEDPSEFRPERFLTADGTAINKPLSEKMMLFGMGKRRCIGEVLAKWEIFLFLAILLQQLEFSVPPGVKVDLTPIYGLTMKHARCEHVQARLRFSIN
Assay: Cytochrome P450 Family 1 Subfamily A Member 2 (CYP1A2) small molecule antagonists: luciferase reporter qHTS assay (AID 1671199); note: nearly all actives have a fitted effect of over 50% in size; note: potency is the fitted concentration of half-maximal effect
Conditions: P450-Glo CYP1A2 enzyme, luciferin luminescence, 1 h; series mostly up to 115 µM
Results filed as inconclusive are left out. Active and inactive are the calls of the source. Calls come from the whole dose curve; as a rule, active = well fitted inhibition curve with a large enough effect in the repeat runs; inconclusive = weak or mixed curves; inactive = no such curve, though single readings can be large or run the other way.
attribute measured: Potency

As a guide, the following entries are already answered.
CC(C)C(=O)OCC(C)(C)C(OC(=O)C(C)C)C(C)C (centres undefined): inactive
c1cc(OCC2CO2)ccc1Cc1ccc(OCC2CO2)cc1 (centres undefined): 71 µM (active)
N#CCCCl: inactive
C[C@]12CCC(=O)C(O)=C1CC[C@@H]1[C@@H]2CC[C@]2(C)C(=O)CC[C@@H]12: inactive
CNC(=O)N(C)c1nnc(C(C)(C)C)s1: 39.9 µM (active)

# input for lookup
Prompt: Recorded Potency of CCC(C)(c1ccc(O)cc1)c1ccc(O)cc1 , please.
Completion: inactive

----------
Assay: qHTS assay for small molecule agonists of the antioxidant response element (ARE) signaling pathway - cell viability counter screen (AID 743203); note: % is set by controls: 0 for no effect and ±100 for the full control effect; nearly all actives have a fitted effect of over 55% in size
Details: ARE-bla HepG2 viability, CellTiter-Glo luminescence, 16 h; series mostly up to 73.3 µM
Inconclusive results are not listed. Calls of active or inactive are those of the source. Calls come from the whole dose curve.
attribute measured: outcome

Recorded outcome, per entry:
COP(=O)(OC)OC: inactive
NNC(N)=S: inactive
CNC(=O)Oc1cccc2c1OC(C)(C)O2: inactive
Cc1cccc(N)c1N: inactive
CCCCCc1cc(O)cc(O)c1: inactive

Prompt: Could you share which outcome value was measured for Cc1ccc(OP(=O)(Oc2ccc(C)cc2)Oc2ccc(C)cc2)cc1 ?
Completion: inactive

Prompt: # outcome lookup, item CC(C)NC(C)C
Completion: inactive

Prompt: State the recorded outcome for this entry: c1ccc(N=Nc2ccccc2)cc1
Completion: inactive

Prompt: Which outcome is listed for O=Cc1ccco1 ?
Completion: inactive

----------
# max activation values compiled below
Biological target: Nuclear receptor subfamily 1 group I member 2 (Rattus norvegicus) (UniProt Q9R1A7)
Sequence (Q9R1A7 whole entry, looked up): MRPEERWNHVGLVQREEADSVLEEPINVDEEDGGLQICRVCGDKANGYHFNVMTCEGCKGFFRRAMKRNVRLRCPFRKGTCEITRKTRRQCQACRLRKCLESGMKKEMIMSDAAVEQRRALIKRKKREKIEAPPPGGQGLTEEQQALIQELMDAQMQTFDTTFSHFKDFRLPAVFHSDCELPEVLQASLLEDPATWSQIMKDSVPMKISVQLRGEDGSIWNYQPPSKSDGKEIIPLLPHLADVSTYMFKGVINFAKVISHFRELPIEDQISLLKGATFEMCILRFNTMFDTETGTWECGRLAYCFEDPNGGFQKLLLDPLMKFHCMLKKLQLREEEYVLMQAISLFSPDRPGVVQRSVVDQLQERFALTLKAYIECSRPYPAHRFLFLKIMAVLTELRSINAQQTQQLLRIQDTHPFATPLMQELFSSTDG
Assay: Rat pregnane X receptor (rPXR) activation by small molecules, qHTS assay (AID 1346983); note: % is set by controls: 0 for no effect and ±100 for the full control effect; nearly all actives have a fitted effect of over 20% in size
Conditions: rPXR luciferase reporter cells, One-Glo luminescence, 24 h; active compounds read high
Inconclusive results are not listed.
Answer in %, number only, no unit symbol.

Recorded max activation, per entry:
Oc1cc(Cl)ccc1Oc1ccc(Cl)cc1Cl: -0.85
CC(C)NC(C)C: -0.504
CCC(=O)O[C@H]1CC[C@H]2[C@@H]3CCC4=CC(=O)CC[C@]4(C)[C@H]3CC[C@]12C: -2.06
O=Cc1ccco1: -0.979
Oc1cc(Cl)c(Cl)cc1Cl: -1.86

Prompt: Please give the measured max activation for this molecule: O=c1oc2ccccc2c(O)c1C(CC(O)c1ccc(-c2ccc(Br)cc2)cc1)c1ccccc1 (centres undefined)
Completion: -5.73

Prompt: Look at this molecule and give its reported max activation. CCCCCCCCOC(=O)c1ccccc1C(=O)OCCCCCCCC
Completion: -0.303

Prompt: I have this molecule here, C[C@]12CCC(=O)C(O)=C1CC[C@@H]1[C@@H]2CC[C@]2(C)C(=O)CC[C@@H]12 , and I need its recorded max activation.
Completion: -2.61

Prompt: GET /values?readout=max activation&item= C#C[C@]1(O)CC[C@H]2[C@@H]3CCC4=CC(=O)CC[C@]4(C)[C@H]3CC[C@@]21C
Completion: 11.6
